For reference, the following Ki results for Rho-associated protein kinase 1 (Homo sapiens, UniProt Q13464) were taken from various sources.

Look over these answered cases.
>>> meas_value("C=CC(=O)Nc1cnc2[nH]cc(-c3cccc(N4C[C@@H](C)N(C(C)=O)[C@@H](C)C4)n3)c2c1")
"500 to 5000 nM"
>>> meas_value("O=C(Cc1cccc(OCCN2CCNCC2)c1)N(c1nc(-c2c[nH]c3ncccc23)cs1)C1CC1")
"< 500 nM"
>>> meas_value("N#Cc1c[nH]c2nccc(Oc3ccc(CC(CN)C(=O)N4CCN(Cc5ccccn5)CC4)cc3)c12 (stereo not shown)")
"3 to 30 nM"

Write down the reported Ki (system: Rho-associated protein kinase 1 (Homo sapiens, UniProt Q13464)) of N[C@@H](Cc1ccc(Oc2ccnc3[nH]ccc23)c(F)c1)C(=O)NC1CCCCC1
< 3 nM

Write down the reported Ki (system: Rho-associated protein kinase 1 (Homo sapiens, UniProt Q13464)) of Cc1c[nH]c2ncnc(Oc3c(F)cc(C[C@H](N)C(=O)N4CCC(S(=O)(=O)c5ccccc5)CC4)cc3F)c12
< 3 nM

Write down the reported Ki (system: Rho-associated protein kinase 1 (Homo sapiens, UniProt Q13464)) of Cc1c[nH]c2nccc(Oc3ccc([C@@H]4CN(C)C[C@H]4C(=O)NCc4ccccc4)cc3)c12 (racemic)
3 to 30 nM

Write down the reported Ki (system: Rho-associated protein kinase 1 (Homo sapiens, UniProt Q13464)) of C[C@H](Nc1nc(-c2c[nH]c3ncc(Cl)cc23)ncc1F)C(=O)NCCN1CCOCC1
500 to 5000 nM
